meta.source: PubChem BioAssay (EPA / NIEHS)

tested on: guinea pig Dopamine Transporter (DAT), gene 100714898; assay: NVS_TR_gDAT: NovaScreen (NVS) Transporter Assay for guinea pig Dopamine Transporter (DAT) (AID 2283369);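 further: active compounds lower bound radioligand signal relative to DMSO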
Results filed as inconclusive are left out. Calls of active or inactive are those of the source. How the source made its calls: active means hit-call score of the fitted dose curve at least 0.9, where 1 is the maximum; inconclusive means response in the unintended direction; inactive means score below 0.9.
Thanks in advance; please answer with one of these: Y = active, N = inactive

Known results for compounds:
CC[C@H](c1ccc(O)cc1)[C@@H](CC)c1ccc(O)cc1 :: Y
CC#C[C@]1(O)CC[C@H]2[C@@H]3CCC4=CC(=O)CCC4=C3[C@@H](c3ccc(N(C)C)cc3)C[C@@]21C :: N
CC(=O)NC1(c2cccc(F)c2)CCN(CC[C@@]2(c3ccc(Cl)c(Cl)c3)CN(c3ccccc3)C(=O)CO2)CC1 :: Y
NC(=O)N(O)[C@@H]1C=C[C@H](Oc2cccc(Oc3ccc(F)cc3)c2)C1 :: Y
CCCCCCCCCCCCc1ccccc1S(=O)(=O)O :: Y

Then there is this compound:
Write down the call the test reported for this compound. Item: CCCOC(=O)c1ccc(O)cc1
N
